The values you see were collected from paper PMC11249646.

Molecular target: GST-CIB1 : F-scrambled peptide (Homo sapiens, UniProt Q99828)
Construct: made in house; host or cells: BL-21 plus RIL cells (E. coli)
Sequence (Q99828 whole entry): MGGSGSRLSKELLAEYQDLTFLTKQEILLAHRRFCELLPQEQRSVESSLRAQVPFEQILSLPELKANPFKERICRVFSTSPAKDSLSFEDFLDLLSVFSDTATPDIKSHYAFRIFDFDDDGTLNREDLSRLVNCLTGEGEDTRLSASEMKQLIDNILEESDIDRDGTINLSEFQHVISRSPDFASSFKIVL
Test: FP scrambled-peptide counter screen, 1536-well format
Format: binding
Conditions: Table S3, counterscreen, qHTS curve class; a negative sign marks inhibitory curves
// values below are reported Curve Class (counterscreen)
measured.parameter: Curve Class (counterscreen)

- O=C(O)C(F)(F)F.Oc1cccc2cc(N3CCCC3)cnc12 [NCGC00188744-01]: -1.4
- CN(C)CC1CCCN(C2CCN(C(=O)c3cccc(-c4cc(O)c5ncccc5c4)c3)CC2)C1.O=C(O)C(F)(F)F (stereo not drawn) [NCGC00247737-01]: -2.2
- COc1ccc(-n2ncc3c2CCCC3NC(=O)c2ccccc2Cl)cc1.O=C(O)C(F)(F)F (stereo not drawn) [NCGC00273443-01]: 4
- CS(=O)(=O)c1ccc(C(=O)OCC(=O)N2CCN(CCC3CCCCC3)CC2)cc1[N+](=O)[O-].O=C(O)C(F)(F)F [NCGC00188531-01]: -2.2
- CCOc1ccc(CCNC(=O)c2ccc(N3N=C(C)CC3=O)cc2)cc1OCC.O=C(O)C(F)(F)F [NCGC00241439-01]: 4
- O=C(c1cc(O)c(O)c(O)c1)c1ccc(O)c(O)c1O [NCGC00249050-02]: -1.1
- CC(=O)NC(Cc1ccccc1)C(=O)O (stereo not drawn) [NCGC00042134-05]: 4
- O=C(NCCCN1CCNCC1)c1cccc(-c2cc(O)c3ncccc3c2)c1.O=C(O)C(F)(F)F [NCGC00244531-01]: -1.2
- C[C@@H](NCc1cc2ccccc2[nH]1)c1cccc2ccccc12.Cl [NCGC00344505-01]: 4
- CC(C)(O)CCc1ccc(OCc2cc(-c3cccc(OC(F)F)c3)c3ncccc3c2)cc1 [NCGC00249759-02]: 4
- Cc1ccsc1C1N=C(Nc2nc3ccccc3o2)NC2=C1C(=O)CCC2.O=C(O)C(F)(F)F (stereo not drawn) [NCGC00189283-01]: -2.4
- COc1ccc(CC(NC(C)=O)C(=O)O)cc1 (stereo not drawn) [NCGC00384987-01]: -2.1
- Nc1nc2c(s1)C(c1ccccc1)CC(=O)N2 (stereo not drawn) [NCGC00422009-03]: -2.4
- C/C(=C\c1ccc2c(c1)OCO2)C1Nc2cccc3cccc(c23)N1 [NCGC00182904-03]: -1.2
- NC(=O)C1CCN(c2nc(-c3ccccc3N)cs2)CC1.O=C(O)C(F)(F)F [NCGC00183555-01]: -1.4
- COC(=O)c1cc(Cl)ccc1NS(=O)(=O)C(F)(F)F [NCGC00249937-01]: 4
- O=C(N/N=C1\C(=O)N(CCc2ccccc2)c2ccccc21)c1cccnc1 [NCGC00420788-01]: -2.2
- O=C(O)C(F)(F)F.O=C(c1ccc(-c2cc(O)c3ncccc3c2)cc1)N1CCNCC1 [NCGC00183806-01]: -1.2
- Cc1coc2c1C(=O)C(=O)c1c-2ccc2c1CCCC2(C)C [NCGC00095709-08]: -2.2
- O=C(O)C(F)(F)F.O=C1CCCC2=C1C(c1ccn[nH]1)N=C(Nc1nc3ccccc3o1)N2 (stereo not drawn) [NCGC00229725-01]: 4
- CN(C)CCCCCCNC(=O)c1cccc(-c2cc(O)c3ncccc3c2)c1.O=C(O)C(F)(F)F [NCGC00247743-01]: -2.4
- CO[C@@]12[C@H](COC(N)=O)C3=C(C(=O)C(C)=C(N)C3=O)N1C[C@@H]1N[C@@H]12 [NCGC00163468-05]: 3
- COc1c(O)cccc1[C@H](O)C1CCN(CCc2ccc(F)cc2)CC1 [NCGC00168042-01]: -2.1
- COc1cccc(CN(C)c2ccc(S(=O)(=O)Nc3nccs3)cc2)c1O.O=C(O)C(F)(F)F [NCGC00318978-01]: -2.4
- O=C(O)C(F)(F)F.Oc1cccc2cc(C3CC3)cnc12 [NCGC00188747-01]: 4
- Cc1ccccc1NC(=O)CN1C(=O)N/C(=C\c2cn(-c3cccc(C(=O)O)c3)cn2)C1=O [NCGC00182400-01]: 4
- CN1CCCN(C(=O)c2cccc(-c3ccc(/C=C4/C(=O)Nc5ccc(Cl)cc54)o3)c2)CC1 [NCGC00346935-01]: -1.1
- N#Cc1ccc(NS(=O)(=O)c2ccc(NC(=O)Cc3ccc(F)c(Cl)c3)cc2)cc1.O=C(O)C(F)(F)F [NCGC00343891-01]: 3
- CO[C@H](C(=O)[C@@H](O)[C@@H](C)O)[C@@H]1Cc2cc3cc(C[C@H]4C[C@H](O[C@H]5C[C@@H](O)[C@H](O)[C@@H](C)O5)[C@@H](O)[C@@H](C)O4)c(C)c(O)c3c(O)c2C(=O)[C@H]1O[C@@H]1C[C@H](O[C@@H]2C[C@H](O[C@@H]3C[C@](O)(CO)[C@@H](O)[C@H](C)O3)[C@@H](O)[C@H](C)O2)[C@@H](O)[C@H](C)O1 [NCGC00162423-04]: -1.1
- COc1ccccc1Nc1cc2ccccc2c(O)n1 [NCGC00183215-01]: -2.1
